study target: ΔF508-CFTR (Homo sapiens, UniProt P13569, DEL508-508)
Construct: expressed in transfected cells
Sequence (P13569 with tags, fused parts or gaps DEL508-508): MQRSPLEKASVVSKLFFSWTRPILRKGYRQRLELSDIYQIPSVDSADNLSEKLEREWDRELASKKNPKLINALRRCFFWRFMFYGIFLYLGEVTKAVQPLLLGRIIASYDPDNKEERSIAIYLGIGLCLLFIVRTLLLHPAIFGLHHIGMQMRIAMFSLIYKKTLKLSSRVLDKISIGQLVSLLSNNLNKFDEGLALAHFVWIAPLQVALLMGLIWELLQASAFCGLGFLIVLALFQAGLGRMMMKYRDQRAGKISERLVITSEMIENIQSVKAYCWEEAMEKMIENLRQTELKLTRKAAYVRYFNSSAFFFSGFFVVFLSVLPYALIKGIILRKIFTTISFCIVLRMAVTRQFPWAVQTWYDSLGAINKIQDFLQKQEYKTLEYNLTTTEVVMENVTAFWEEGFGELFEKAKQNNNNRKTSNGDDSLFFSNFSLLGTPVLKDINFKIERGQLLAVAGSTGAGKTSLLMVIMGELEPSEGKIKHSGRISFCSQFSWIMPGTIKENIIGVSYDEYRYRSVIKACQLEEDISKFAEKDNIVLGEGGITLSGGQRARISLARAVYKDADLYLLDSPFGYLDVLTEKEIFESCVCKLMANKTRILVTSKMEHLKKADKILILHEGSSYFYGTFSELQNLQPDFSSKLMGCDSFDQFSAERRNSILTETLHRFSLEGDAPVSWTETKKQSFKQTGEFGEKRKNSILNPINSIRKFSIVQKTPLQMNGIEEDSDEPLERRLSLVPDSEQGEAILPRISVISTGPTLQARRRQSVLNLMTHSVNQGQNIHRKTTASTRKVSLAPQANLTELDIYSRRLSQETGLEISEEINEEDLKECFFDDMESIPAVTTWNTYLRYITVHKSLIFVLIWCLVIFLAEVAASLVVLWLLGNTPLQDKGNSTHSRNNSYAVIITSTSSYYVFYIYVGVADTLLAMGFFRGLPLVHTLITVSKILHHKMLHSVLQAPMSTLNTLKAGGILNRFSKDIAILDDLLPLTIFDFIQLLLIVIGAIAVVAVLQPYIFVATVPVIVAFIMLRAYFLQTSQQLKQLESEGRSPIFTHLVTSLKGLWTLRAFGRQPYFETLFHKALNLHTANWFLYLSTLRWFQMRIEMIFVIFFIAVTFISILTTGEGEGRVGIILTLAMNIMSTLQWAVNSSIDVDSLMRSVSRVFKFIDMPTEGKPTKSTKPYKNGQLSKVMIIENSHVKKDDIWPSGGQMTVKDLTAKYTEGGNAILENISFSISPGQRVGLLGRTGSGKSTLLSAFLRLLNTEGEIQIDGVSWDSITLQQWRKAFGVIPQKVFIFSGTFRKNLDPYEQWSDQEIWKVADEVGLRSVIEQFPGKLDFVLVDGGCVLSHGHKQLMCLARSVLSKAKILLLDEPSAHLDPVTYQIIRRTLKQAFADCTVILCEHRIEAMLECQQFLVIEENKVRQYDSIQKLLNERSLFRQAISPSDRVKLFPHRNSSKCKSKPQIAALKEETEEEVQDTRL
procedure details: Membrane potential optical assay (FRET/VIPR), identification of correction compounds
Format: cell-based
conditions used: relative efficacy
From the text: I) Membrane Potential Optical Methods for Assaying ΔF508-CFTR Modulation Properties of Compounds […] These voltage sensitive assays are based on the change in fluorescence resonant energy transfer (FRET) between the membrane-soluble, voltage-sensitive dye, DiSBAC2(3), and a fluorescent phospholipid, CC2-DMPE, which is attached to the outer leaflet of the plasma membrane and acts as a FRET donor. […]
Here, each record is paired with measured Emax data.

Example results:
molecule	study target	assay result
CC(c1nc2ccc(C#N)cc2c(=O)n1C)N1CCN(S(=O)(=O)c2ccc(Cl)cc2)CC1 (stereo not shown) [compound 126]	ΔF508-CFTR (Homo sapiens, UniProt P13569, DEL508-508)	25 to 100%
COc1ccc(S(=O)(=O)N2CCN(C(C)c3nc(N4CCC(N5CCCCC5)CC4)c4ccccc4n3)CC2)cc1 (stereo not shown) [compound 317]	ΔF508-CFTR (Homo sapiens, UniProt P13569, DEL508-508)	< 25%
CC(Nc1ccc(NS(=O)(=O)c2ccc(Br)cc2)cc1)c1nc2ccccc2c(=O)n1C (stereo not shown) [compound 309]	ΔF508-CFTR (Homo sapiens, UniProt P13569, DEL508-508)	25 to 100%

Now consider a different molecule.
Q: Lab note: need Emax for CC(c1nc2ccccc2c(=O)n1C)N1CCN(S(=O)(=O)c2ccc(C#N)cc2)CC1 (stereo not shown) [compound 250] on ΔF508-CFTR (Homo sapiens, UniProt P13569, DEL508-508), anyone have it?
Ans: 25 to 100%

----------
study target: ΔF508-CFTR (Homo sapiens, UniProt P13569, DEL508-508)
procedure details: Membrane potential optical assay (FRET/VIPR), identification of correction compounds
From the text: I) Membrane Potential Optical Methods for Assaying ΔF508-CFTR Modulation Properties of Compounds […] These voltage sensitive assays are based on the change in fluorescence resonant energy transfer (FRET) between the membrane-soluble, voltage-sensitive dye, DiSBAC2(3), and a fluorescent phospholipid, CC2-DMPE, which is attached to the outer leaflet of the plasma membrane and acts as a FRET donor. […]
pEC50: −log10 of the molar value.
Here, each record is paired with measured pEC50 data.

molecule	assay result
CC(c1nc2ccccc2c(=O)n1C)N1CCN(C(=O)Nc2ccc(Cl)cc2)CC1 (centres unmarked)	4.22 to 4.60
Cc1cccc(C(=O)N2CCN(C(C)c3nc4ccc(Cl)cc4c(=O)n3C)CC2)c1 (centres unmarked)	4.22 to 4.60
COc1ccc(S(=O)(=O)N2CCN(C(C)c3nc(N4CCC(C)CC4)c4ccccc4n3)CC2)cc1 (centres unmarked)	> 5.00
CC(c1nc2ccc(-c3nnn[nH]3)cc2c(=O)n1C)N1CCN(S(=O)(=O)c2ccc(Cl)cc2)CC1 (centres unmarked)	4.22 to 4.60
COc1ccc(S(=O)(=O)N2CCN(C(C)c3nc(OC)c4ccccc4n3)CC2)cc1 (centres unmarked)	4.22 to 4.60

Q: Lab note: need pEC50 for CC(c1nc2ccccc2c(=O)n1C)N1CC2CC1CN2S(=O)(=O)c1ccc(Br)cc1 (centres unmarked) on ΔF508-CFTR (Homo sapiens, UniProt P13569, DEL508-508), anyone have it?
Ans: 4.22 to 4.60

Q: Lab note: need pEC50 for COc1ccc(S(=O)(=O)N2CCN(C(C)c3nc(N(C)Cc4ccccc4)c4ccccc4n3)CC2)cc1 (centres unmarked) on ΔF508-CFTR (Homo sapiens, UniProt P13569, DEL508-508), anyone have it?
Ans: > 5.00

Q: Lab note: need pEC50 for CC(NC1CCN(S(=O)(=O)c2ccc(Cl)cc2)C1)c1nc2ccccc2c(=O)n1C (centres unmarked) on ΔF508-CFTR (Homo sapiens, UniProt P13569, DEL508-508), anyone have it?
Ans: 4.22 to 4.60
